- Test system: MM.1S cells
- Assay details: MM.1S cell proliferation inhibition (MTS assay)
- Type: cell-based
- Measurement setup: Homo sapiens, MM1.S, 168 h, 7 days incubation, read-out: MM1.S (IC50, Inhibitory Activity of Compounds on MM.1S Cell Proliferation)
- Method: The cell concentration was diluted according to a 7-day incubation period, and 180 µL of cell suspension was added to each well of a 96-well plate, with 20,000 cells per well. […] The absorbance at 490 nm was measured using a microplate reader, and the absorbance at 690 nm was used as the background value. […] The IC50 values for cell proliferation inhibition were determined using GraphPad Prism 5.0. […]
Field: IC50. Provide a value for each of the compounds that follow.

Sample records with IC50:
| Compound | Target under test | Result |
| --- | --- | --- |
| O=C1CC[C@H](n2[nH]c3c(OCc4cnc(-c5ccc(OC(F)(F)F)cc5)o4)cccc3c2=O)C(=O)N1 | MM.1S cells | 1 to 10 µM |
| O=C1CCC(n2[nH]c3c(OCc4ccc(CN5CC(N6CCOCC6)C5)cc4)cccc3c2=O)C(=O)N1 (centres unmarked) | MM.1S cells | < 0.2 µM |
| N#Cc1ccc(N2CCN(C(=O)c3ccc(COc4cccc5c(=O)n(C6CCC(=O)NC6=O)[nH]c45)cc3)CC2)c(F)c1 (centres unmarked) | MM.1S cells | < 0.2 µM |
| Cc1ccc([C@H](C)NC(=O)c2ccc3c(=O)n(C4CCC(=O)NC4=O)[nH]c3c2)cc1 (some centres unmarked) | MM.1S cells | > 10 µM |
| CCc1ccc([C@H](C)NC(=O)c2ccc3c(=O)n(C4CCC(=O)NC4=O)[nH]c3c2)cc1 (some centres unmarked) | MM.1S cells | 0.2 to 1 µM |

Give IC50 for each of the items listed below.
1. C[C@H](NC(=O)c1ccc2c(=O)n(C3CCC(=O)NC3=O)[nH]c2c1)c1cccc(Cl)c1 (some centres unmarked)
2. CCn1c2c(OCc3ccc(CN4CCN(c5ccc(C#N)cc5F)CC4)cc3)cccc2c(=O)n1C1CCC(=O)NC1=O (centres unmarked)
3. O=C1CCC(n2[nH]c3c(OCc4ccc(CN5CCN(c6ccc(Cl)cc6Cl)CC5)cc4)cc(F)cc3c2=O)C(=O)N1 (centres unmarked)
4. N#Cc1ccc(N2CCN(Cc3ccc(COc4cccc5c(=O)n([C@H]6CCC(=O)NC6=O)[nH]c45)cc3)CC2)c(F)c1 [Compound D2]

["> 10 µM", "1 to 10 µM", "< 0.2 µM", "< 0.2 µM"]

Give IC50 for each of the items listed below.
1. O=C1CCC(n2[nH]c3c(OCc4ccc(CN5CCN(c6ccc(Cl)cc6F)CC5)cc4)cc(F)cc3c2=O)C(=O)N1 (centres unmarked)
2. O=C1CCC(n2[nH]c3cc(C(=O)N[C@@H]4CCOc5ccc(Cl)cc54)ccc3c2=O)C(=O)N1 (some centres unmarked)
3. O=C1CCC(n2[nH]c3c(OCc4ccc(CN5CCN(c6ccc(C(F)(F)F)cc6)CC5)cc4)cc(F)cc3c2=O)C(=O)N1 (centres unmarked)
4. Cn1c2c(OCc3ccc(CN4CCN(c5ccc(C#N)cc5F)CC4)cc3)cccc2c(=O)n1C1CCC(=O)NC1=O (centres unmarked)
5. N#Cc1ccc(N2CCC(Sc3ccc(COc4cccc5c(=O)n([C@H]6CCC(=O)NC6=O)[nH]c45)cn3)CC2)c(F)c1

1. < 0.2 µM
2. > 10 µM
3. < 0.2 µM
4. < 0.2 µM
5. < 0.2 µM
